- Target or system: DR4w4 (DRB1*0401) (Homo sapiens, UniProt P01903+P01911, A100K/A169T/F76Y/I96L/K127E/L162R/M171V/N62H/P40V/Q125Y/R42H/S133A/S149N/S66Y/V115G/V209L/W38E)
- Assay notes: biochemical
- Format: binding
No end group written: not given here.
Each record is given MET if its reported IC50 is strictly below 400 nM. Records at or above 400 nM are given NOT MET.

>>> assigned_category("RKTIAKALSSILNVP [Peptide 89.0123]")
"NOT MET"
>>> assigned_category("ISEVMGDTPEWIQRL [Peptide 90.0052]")
"NOT MET"
>>> assigned_category("LIRLENAILFTAREH [Peptide 90.0002]")
"NOT MET"
>>> assigned_category("RLTVSKLMSQLLNIP [89,0100]")
"NOT MET"
>>> assigned_category("IWEVHMENESIYCPD [Peptide 90.0237]")
"NOT MET"
>>> assigned_category("RFHNIMGRWTGRCSE [Peptide 1543.60]")
"MET"
>>> assigned_category("ACSWGMVVLLLVRYK [Peptide 89.0004]")
"NOT MET"
>>> assigned_category("GGDWKQIVMFLRYQG [Peptide 89.0013]")
"NOT MET"
>>> assigned_category("LKAICIENNSKTAKR [Peptide 90.0064]")
"MET"
>>> assigned_category("QQLLQVQTAHADKQT [Peptide 89.0115]")
"NOT MET"
>>> assigned_category("GRAVCGGVLVHPQWV [Peptide 68.0062]")
"NOT MET"
>>> assigned_category("QWVLTAAHCLKKNSQ [Peptide 68.0004]")
"NOT MET"
>>> assigned_category("SWGMVMLMLVRFKCA [Peptide 89.0044]")
"NOT MET"
>>> assigned_category("DICNTMHYTNWTHIY [Peptide 1601.04]")
"NOT MET"
>>> assigned_category("IIHLKGDPNSLKCLR [Peptide 90.0228]")
"MET"
>>> assigned_category("IYIIEEDTCTMVTGK [Peptide 90.0204]")
"MET"
>>> assigned_category("AQEVHNDAQVLHVLK [Peptide 90.0047]")
"NOT MET"
>>> assigned_category("YFKLFLQGTPKHNCL [Peptide 89.0133]")
"MET"
>>> assigned_category("RQHLANHPAATHTKA [Peptide 89.0155]")
"NOT MET"
>>> assigned_category("GQVIVCPASVSSNEV [Peptide 90.0016]")
"MET"
>>> assigned_category("QHSFNDDIFDLSEMI [Peptide 90.0152]")
"MET"
>>> assigned_category("SNLLSIPETCMVIEP [Peptide 89.0067]")
"MET"
>>> assigned_category("WKAVRHENVLYYKAR [Peptide 90.0230]")
"NOT MET"
>>> assigned_category("ELQMALKGLAQSKYN [Peptide 90.0005]")
"NOT MET"
>>> assigned_category("NMSLLKHQSLRPDED [Peptide 68.0009]")
"NOT MET"
